- System: Trypanosoma brucei brucei
- TEST: Antitrypanosomal activity against Trypanosoma brucei brucei TC221 after 48 hrs by alamar blue assay
- Format: functional
- PROTOCOL CONDITIONS: TC221, 48 h
Field: label. Allowed values: TRUE (IC50 < 5 µM) or FALSE (IC50 >= 5 µM).

COMPOUND: CC1CCc2nc3ccc([N+](=O)[O-])cc3c(N)c2C1 (stereo not given)
ASSIGNED CLASS: TRUE

COMPOUND: Nc1c2c(nc3ccc(Cl)cc13)CCCC2
ASSIGNED CLASS: FALSE

COMPOUND: Nc1c2c(nc3ccc([N+](=O)[O-])cc13)CCCC2
ASSIGNED CLASS: FALSE

COMPOUND: CCCCOC1CCc2nc3cc(Cl)ccc3c(NCCCCCCCCCNc3c4c(nc5cc(Cl)ccc35)CCC(OCCCC)C4)c2C1 (stereo not given)
ASSIGNED CLASS: TRUE

COMPOUND: CC1CCc2c(nc3ccc([N+](=O)[O-])cc3c2NCCCCCCNc2c3c(nc4ccc([N+](=O)[O-])cc24)CC(C)CC3)C1 (stereo not given)
ASSIGNED CLASS: TRUE

COMPOUND: CCCC1CCc2nc3ccccc3c(N)c2C1 (stereo not given)
ASSIGNED CLASS: TRUE

COMPOUND: C1=Cc2c(nc3ccccc3c2NCCCCCCCCNc2c3c(nc4ccccc24)CCC=C3)CC1
ASSIGNED CLASS: TRUE

COMPOUND: c1ccc2c(NCCCCCNc3c4c(nc5ccccc35)CCCC4)c3c(nc2c1)CCCC3
ASSIGNED CLASS: FALSE

COMPOUND: CC1CCc2c(nc3ccc([N+](=O)[O-])cc3c2N)C1 (stereo not given)
ASSIGNED CLASS: FALSE

COMPOUND: CCOC1CCc2nc3cc(Cl)ccc3c(NCCCCCCCCCNc3c4c(nc5cc(Cl)ccc35)CCC(OCC)C4)c2C1 (stereo not given)
ASSIGNED CLASS: TRUE

* * *

Parameter inhibition: see the listing below.
- SYSTEM UNDER TEST: Rhodesain (Trypanosoma brucei rhodesiense) (UniProt Q95PM0)
- Sequence (Q95PM0 1-450): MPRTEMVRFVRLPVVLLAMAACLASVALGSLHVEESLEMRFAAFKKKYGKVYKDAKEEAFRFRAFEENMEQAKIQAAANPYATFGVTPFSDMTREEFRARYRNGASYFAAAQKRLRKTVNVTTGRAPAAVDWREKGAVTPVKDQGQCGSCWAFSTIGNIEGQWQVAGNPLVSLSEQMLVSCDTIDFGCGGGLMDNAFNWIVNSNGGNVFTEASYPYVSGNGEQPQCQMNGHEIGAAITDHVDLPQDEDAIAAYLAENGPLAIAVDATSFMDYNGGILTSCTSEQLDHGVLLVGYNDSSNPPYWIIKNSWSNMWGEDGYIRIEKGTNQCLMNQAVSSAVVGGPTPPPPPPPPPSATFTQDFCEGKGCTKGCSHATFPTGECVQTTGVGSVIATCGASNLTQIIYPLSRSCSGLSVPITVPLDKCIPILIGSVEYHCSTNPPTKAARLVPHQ
- TEST: Inhibition of Trypanosoma brucei rhodesiense rhodesain at 20 uM using Cbz-Phe-Arg-AMC as substrate measured for 5 mins by spectrofluorometric analysis relative to control
TEST READOUT: inhibition (%)

COMPOUND STRING: COc1ccc2nc3c(c(NCCCCCCCCCNc4c5c(nc6ccc(OC)cc46)CCCC5)c2c1)CCCC3
SYSTEM UNDER TEST: Rhodesain (Trypanosoma brucei rhodesiense) (UniProt Q95PM0)
TEST READOUT: inhibition
NUMBER: 82
--
COMPOUND STRING: c1ccc2c(NCCCCCCNc3c4c(nc5ccccc35)CCCC4)c3c(nc2c1)CCCC3
SYSTEM UNDER TEST: Rhodesain (Trypanosoma brucei rhodesiense) (UniProt Q95PM0)
TEST READOUT: inhibition
NUMBER: 25
--
COMPOUND STRING: CC1(C)CCc2c(nc3cc(Cl)ccc3c2NCCCCCCNc2c3c(nc4cc(Cl)ccc24)CC(C)(C)CC3)C1
SYSTEM UNDER TEST: Rhodesain (Trypanosoma brucei rhodesiense) (UniProt Q95PM0)
TEST READOUT: inhibition
NUMBER: 64

* * *

- System: Trypanosoma brucei brucei
- TEST: Antitrypanosomal activity against Trypanosoma brucei brucei TC221 after 48 hrs by alamar blue assay
- Assay type: functional
- PROTOCOL CONDITIONS: TC221, 48 h
pIC50: −log10 of the molar value.

COMPOUND: CC1CCc2nc3ccccc3c(NCCCCCCCCCNc3c4c(nc5ccccc35)CCC(C)C4)c2C1 (stereo not drawn)
pIC50: 6.80

COMPOUND: CCC1CCc2nc3ccccc3c(N)c2C1 (stereo not drawn)
pIC50: 4.91

COMPOUND: CC1CCc2nc3ccc(Cl)cc3c(N)c2C1 (stereo not drawn)
pIC50: 5.41
